- TESTED ON: hTREM2 (Homo sapiens, UniProt Q9NZC2)
- Sequence (Q9NZC2 19-230): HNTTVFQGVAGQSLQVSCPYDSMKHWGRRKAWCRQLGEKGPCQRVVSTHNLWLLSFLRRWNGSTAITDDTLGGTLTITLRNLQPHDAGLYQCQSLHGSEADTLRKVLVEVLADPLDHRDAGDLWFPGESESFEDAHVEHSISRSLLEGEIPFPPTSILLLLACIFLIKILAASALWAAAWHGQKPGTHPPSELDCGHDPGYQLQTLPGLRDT
- Sequence (O43914 22-113 partner): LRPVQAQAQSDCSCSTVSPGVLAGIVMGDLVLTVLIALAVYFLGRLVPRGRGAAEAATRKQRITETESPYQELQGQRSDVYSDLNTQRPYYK
- PROCEDURE TEXT: TREM2 activity by cellular Syk phosphorylation (AlphaScreen/AlphaLISA) in TREM2/DAP12-HEK cells, used for Examples 1-305
- Format: cell-based
- Set-up: expressed in transfected cells
- PARTICULARS: HEK293 Cells
OBSERVATION TYPE: hTREM2 Emax

**Query** Would you mind telling me what hTREM2 Emax value was observed for Cc1nc2nc(N3CCO[C@@H](c4cnn(C)c4)C3)nc(C3CCC(Cl)CC3)c2nc1C (mixture of isomers) [Example 165] ?
**Result** +++ (Emax>150 and ≤250)

**Query** Quick one: hTREM2 Emax of Cc1cc([C@H]2CN(c3nc4nc(C)c(C)cc4c([C@H]4C[C@H](C(F)(F)F)C4)n3)CCO2)cnn1 (single isomer, unassigned) [Example 114] ?
**Result** +++ (Emax>150 and ≤250)

**Query** GET /values?readout=hTREM2 Emax&item= Cc1nc2nc([C@@H]3CCO[C@H](c4cnn(C5CC5)c4)C3)nc(-c3ccc(C(F)(F)F)nc3)c2nc1C [Example 301]
**Result** +++ (Emax>150 and ≤250)

**Query** What value of measured hTREM2 Emax is listed for Cc1ncc([C@H]2CN(c3nc(-c4ccc(C(F)(F)F)nc4)c4nc(C)c(C)nc4n3)CCO2)cn1 [Example 294] ?
**Result** +++ (Emax>150 and ≤250)

**Query** hTREM2 Emax lookup needed for Cc1cc([C@@H]2C[C@@H](c3nc(-c4ccc(F)cc4F)c4cc(C)c(C)nc4n3)CCO2)ccn1 (single isomer, unassigned) [Example 227] , thanks.
**Result** +++ (Emax>150 and ≤250)

Please go through the list and note hTREM2 Emax for each compound.
1. Cc1nc2nc(N3CCO[C@@H](c4cnn(C)c4)C3)nc(-c3cc(F)c(F)c(F)c3)c2nc1C [Example 18]
2. Cc1cc([C@@H]2C[C@@H](c3nc(-c4ccc(Cl)cc4F)c4nc(C)c(C)nc4n3)CCO2)ccn1 [Example 272]

**Result**
1. +++ (Emax>150 and ≤250)
2. ++++ (Emax>250)

Lab note: each compound below needs its hTREM2 Emax filled in.
1. COc1cc([C@H]2C[C@@H](c3nc(-c4ccc(Cl)cc4F)c4nc(C)c(C)nc4n3)CCO2)ccn1 (single isomer, unassigned) [Example 208]
2. Cc1cc([C@H]2CN(c3cc(-c4ccc(F)cc4F)c4cnc(C)nc4c3)CCO2)ccn1 [Example 154]
3. Cc1nc2nc(N3CCC(F)(F)[C@@H](c4cnn(C)c4)C3)nc(-c3ccc(Cl)cc3F)c2nc1C (single isomer, unassigned) [Example 123]
4. Cc1ccc2c(-c3ccc(F)cc3F)nc([C@@H]3CCO[C@H](c4cnn(C)c4)C3)nc2n1 [Example 290]
5. Cc1cc([C@H]2CN(c3nc(-c4ccc(Cl)cc4F)c4ccc(C)nc4n3)CCO2)ccn1 [Example 88]
6. Cc1nc2nc([C@@H]3CCO[C@@H](c4cnn(C)c4)C3)nc(-c3ccc(Cl)cc3F)c2nc1C [Example 179]

**Result**
["+++ (Emax>150 and ≤250)", "++++ (Emax>250)", "+++ (Emax>150 and ≤250)", "+++ (Emax>150 and ≤250)", "++++ (Emax>250)", "++++ (Emax>250)"]
